Experiment: chemical genetic growth profiling, strain panel (AID 1159580);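 further: tested at 20 µM; growth read once vehicle control cultures reached saturation at 30 °C; 1 = growth at the plate median or of vehicle wells; lower values mean less growth of the strain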
Conditions: S. cerevisiae deletion strains, growth OD, locus YOR329C, strain SCD5, hits give low values
Out of some 5,500 compounds screened, about 2,000 (36%) were called active. Inconclusive results (about 18%) are left out. Some of the results follow.
assay.metric: normalized growth
Output: the number by itself.

Field normalized growth (entry FC(F)(F)c1ccncc1-c1nc(-c2ccc(Cl)cc2)cs1 ) reads 0.981

Field normalized growth (entry O=C(Nc1ccc(F)cc1)c1cc(Br)ccc1O ) reads 0.912

Field normalized growth (entry CC1SC(c2cccnc2)N(c2ccc(F)cc2F)C1=O (stereo unspecified) ) reads 0.979

Field normalized growth (entry COC(=O)c1sccc1S(=O)(=O)Nc1cc(C(F)(F)F)cc(C(F)(F)F)c1 ) reads 0.972

Field normalized growth (entry CCOC(=O)c1ccc(N=Cc2cc(Cl)cc(Cl)c2O)cc1 ) reads 0.942

Field normalized growth (entry Cc1cc(Sc2c([N+](=O)[O-])cc(C(F)(F)F)cc2[N+](=O)[O-])c(Cl)cc1Cl ) reads 0.994

Field normalized growth (entry N/C(=N/OCc1c(F)cccc1Cl)c1ccc(Cl)cc1 ) reads 0.915

Field normalized growth (entry Cc1cc(N=Cc2cc(Cl)cc(Cl)c2O)no1 ) reads 0.952

Field normalized growth (entry O=S(=O)(Nc1c(F)cccc1F)c1ccc(Cl)c(Cl)c1 ) reads 0.943

Field normalized growth (entry O=C(Nc1cc(Cl)cc(Cl)c1)c1cc(Br)ccc1O ) reads 0.948

Field normalized growth (entry COC(=O)c1cccc(NS(=O)(=O)c2ccc(Cl)c(Cl)c2)c1 ) reads 0.977

Values compiled from PubChem BioAssay AID1159580.
